Where do the numbers come from? From paper PMC11839854.

Target: monoacylglycerol lipase (MAGL) (Mus musculus)
Sequence (O35678 whole entry): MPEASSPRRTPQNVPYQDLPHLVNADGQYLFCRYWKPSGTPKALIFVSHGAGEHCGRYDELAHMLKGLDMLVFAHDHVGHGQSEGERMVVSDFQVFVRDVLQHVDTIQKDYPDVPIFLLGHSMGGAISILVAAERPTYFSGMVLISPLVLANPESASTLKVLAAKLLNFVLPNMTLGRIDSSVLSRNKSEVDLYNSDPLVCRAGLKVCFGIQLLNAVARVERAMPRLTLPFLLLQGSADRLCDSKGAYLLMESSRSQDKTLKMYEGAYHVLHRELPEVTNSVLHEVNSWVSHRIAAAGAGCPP
MEASURED ATTRIBUTE: IC50 (nM)
Note: unit nM is implicit; provide only the numeric part.

In plain terms, Cc1cccc(-c2ccc(N3C[C@H](N4CCN(C(=O)c5ccco5)CC4)CC3=O)cc2)c1 [(R)-YH168] has a documented IC50 of 3.8
